# TARGET OR TEST SYSTEM: Serine protease 1 (Bos taurus)
# ASSAY REMARKS: Inhibition of bovine trypsin
PROPERTY MEASURED: K obs / 1
Units required after the number.

Look up Serine protease 1 (Bos taurus) data: K obs / 1 of C[C@H](NC(=O)OCc1ccccc1)C(=O)NC(c1ccc(C(N)N)cc1)P(=O)(Oc1ccccc1)Oc1ccccc1 (some centres not stated) , then report it.
1850 M⁻¹ s⁻¹

Look up Serine protease 1 (Bos taurus) data: K obs / 1 of NCCCCC(NC(=O)OCc1ccccc1)P(=O)(Oc1ccccc1)Oc1ccccc1 (configuration not stated) , then report it.
6240 M⁻¹ s⁻¹

Look up Serine protease 1 (Bos taurus) data: K obs / 1 of N=C(N)c1ccc(C(NC(=O)/C=C/c2cccs2)P(=O)(Oc2ccccc2)Oc2ccccc2)cc1 (configuration not stated) , then report it.
300 M⁻¹ s⁻¹

Look up Serine protease 1 (Bos taurus) data: K obs / 1 of CC(C)[C@H](NC(=O)OCc1ccccc1)C(=O)NC(c1ccc(C(=N)N)cc1)P(=O)(Oc1ccccc1)Oc1ccccc1 (some centres not stated) , then report it.
41 M⁻¹ s⁻¹

Look up Serine protease 1 (Bos taurus) data: K obs / 1 of N=C(N)c1ccc(C(NC(=O)[C@@H]2CCCN2C(=O)c2cccc(Oc3ccccc3)c2)P(=O)(Oc2ccccc2)Oc2ccccc2)cc1 (some centres not stated) , then report it.
4080 M⁻¹ s⁻¹

Look up Serine protease 1 (Bos taurus) data: K obs / 1 of C[C@H](NC(=O)[C@@H](CC(=O)OC(C)(C)C)NC(=O)OCc1ccccc1)C(=O)NC(c1ccc(C(=N)N)cc1)P(=O)(Oc1ccccc1)Oc1ccccc1 (some centres not stated) , then report it.
2000 M⁻¹ s⁻¹

Look up Serine protease 1 (Bos taurus) data: K obs / 1 of C[C@@H](O)[C@H](NC(=O)OCc1ccccc1)C(=O)NC(c1ccc(C(=N)N)cc1)P(=O)(Oc1ccccc1)Oc1ccccc1 (some centres not stated) , then report it.
97 M⁻¹ s⁻¹

====

# TARGET OR TEST SYSTEM: Granzyme K (Rattus norvegicus)
# Sequence (whole entry): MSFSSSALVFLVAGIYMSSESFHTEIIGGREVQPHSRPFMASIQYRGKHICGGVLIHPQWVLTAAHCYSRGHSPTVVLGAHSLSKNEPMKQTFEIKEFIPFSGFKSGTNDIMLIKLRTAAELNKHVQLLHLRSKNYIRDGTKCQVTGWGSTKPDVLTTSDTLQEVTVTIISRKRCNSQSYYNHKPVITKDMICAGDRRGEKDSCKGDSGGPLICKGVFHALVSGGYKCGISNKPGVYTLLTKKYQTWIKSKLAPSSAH
# ASSAY REMARKS: Inhibition of rat granzyme K
For each entry below, report its kobs/[I] (second-order inactivation rate constant) value.
// note: answer is a bare numeric in M⁻¹ s⁻¹

Look up Granzyme K (Rattus norvegicus) data: kobs/[I] (second-order inactivation rate constant) of C[C@H](NC(=O)[C@@H](C)NC(=O)CCC(=O)O)C(=O)NC(c1ccc(C(=N)N)cc1)P(=O)(Oc1ccccc1)Oc1ccccc1 (some centres not stated) , then report it.
0.3

Look up Granzyme K (Rattus norvegicus) data: kobs/[I] (second-order inactivation rate constant) of C[C@H](NC(=O)[C@@H](Cc1ccccc1)NC(=O)OCc1ccccc1)C(=O)NC(c1ccc(C(N)N)cc1)P(=O)(Oc1ccccc1)Oc1ccccc1 (some centres not stated) , then report it.
4.2

Look up Granzyme K (Rattus norvegicus) data: kobs/[I] (second-order inactivation rate constant) of C[C@H](NC(=O)[C@@H](C)NC(=O)OCc1ccccc1)C(=O)NC(c1ccc(C(=N)N)cc1)P(=O)(Oc1ccccc1)Oc1ccccc1 (some centres not stated) , then report it.
5

Look up Granzyme K (Rattus norvegicus) data: kobs/[I] (second-order inactivation rate constant) of N=C(N)c1ccc(C(NC(=O)/C=C/c2ccccc2)P(=O)(Oc2ccccc2)Oc2ccccc2)cc1 (configuration not stated) , then report it.
3

Look up Granzyme K (Rattus norvegicus) data: kobs/[I] (second-order inactivation rate constant) of N=C(N)c1ccc(C(NC(=O)CCC(=O)O)P(=O)(Oc2ccccc2)Oc2ccccc2)cc1 (configuration not stated) , then report it.
0.3

Look up Granzyme K (Rattus norvegicus) data: kobs/[I] (second-order inactivation rate constant) of NC(N)c1ccc(C(NC(=O)c2cccc(Oc3ccccc3)c2)P(=O)(Oc2ccccc2)Oc2ccccc2)cc1 (configuration not stated) , then report it.
1

Look up Granzyme K (Rattus norvegicus) data: kobs/[I] (second-order inactivation rate constant) of NC(N)c1ccc(C(NC(=O)[C@@H]2CCCN2C(=O)CNS(=O)(=O)Cc2ccccc2)P(=O)(Oc2ccccc2)Oc2ccccc2)cc1 (some centres not stated) , then report it.
87
